The origin of these recorded values is patent US12441726B2.

- study_target: BRM (Homo sapiens)
- Sequence (P51531 whole entry): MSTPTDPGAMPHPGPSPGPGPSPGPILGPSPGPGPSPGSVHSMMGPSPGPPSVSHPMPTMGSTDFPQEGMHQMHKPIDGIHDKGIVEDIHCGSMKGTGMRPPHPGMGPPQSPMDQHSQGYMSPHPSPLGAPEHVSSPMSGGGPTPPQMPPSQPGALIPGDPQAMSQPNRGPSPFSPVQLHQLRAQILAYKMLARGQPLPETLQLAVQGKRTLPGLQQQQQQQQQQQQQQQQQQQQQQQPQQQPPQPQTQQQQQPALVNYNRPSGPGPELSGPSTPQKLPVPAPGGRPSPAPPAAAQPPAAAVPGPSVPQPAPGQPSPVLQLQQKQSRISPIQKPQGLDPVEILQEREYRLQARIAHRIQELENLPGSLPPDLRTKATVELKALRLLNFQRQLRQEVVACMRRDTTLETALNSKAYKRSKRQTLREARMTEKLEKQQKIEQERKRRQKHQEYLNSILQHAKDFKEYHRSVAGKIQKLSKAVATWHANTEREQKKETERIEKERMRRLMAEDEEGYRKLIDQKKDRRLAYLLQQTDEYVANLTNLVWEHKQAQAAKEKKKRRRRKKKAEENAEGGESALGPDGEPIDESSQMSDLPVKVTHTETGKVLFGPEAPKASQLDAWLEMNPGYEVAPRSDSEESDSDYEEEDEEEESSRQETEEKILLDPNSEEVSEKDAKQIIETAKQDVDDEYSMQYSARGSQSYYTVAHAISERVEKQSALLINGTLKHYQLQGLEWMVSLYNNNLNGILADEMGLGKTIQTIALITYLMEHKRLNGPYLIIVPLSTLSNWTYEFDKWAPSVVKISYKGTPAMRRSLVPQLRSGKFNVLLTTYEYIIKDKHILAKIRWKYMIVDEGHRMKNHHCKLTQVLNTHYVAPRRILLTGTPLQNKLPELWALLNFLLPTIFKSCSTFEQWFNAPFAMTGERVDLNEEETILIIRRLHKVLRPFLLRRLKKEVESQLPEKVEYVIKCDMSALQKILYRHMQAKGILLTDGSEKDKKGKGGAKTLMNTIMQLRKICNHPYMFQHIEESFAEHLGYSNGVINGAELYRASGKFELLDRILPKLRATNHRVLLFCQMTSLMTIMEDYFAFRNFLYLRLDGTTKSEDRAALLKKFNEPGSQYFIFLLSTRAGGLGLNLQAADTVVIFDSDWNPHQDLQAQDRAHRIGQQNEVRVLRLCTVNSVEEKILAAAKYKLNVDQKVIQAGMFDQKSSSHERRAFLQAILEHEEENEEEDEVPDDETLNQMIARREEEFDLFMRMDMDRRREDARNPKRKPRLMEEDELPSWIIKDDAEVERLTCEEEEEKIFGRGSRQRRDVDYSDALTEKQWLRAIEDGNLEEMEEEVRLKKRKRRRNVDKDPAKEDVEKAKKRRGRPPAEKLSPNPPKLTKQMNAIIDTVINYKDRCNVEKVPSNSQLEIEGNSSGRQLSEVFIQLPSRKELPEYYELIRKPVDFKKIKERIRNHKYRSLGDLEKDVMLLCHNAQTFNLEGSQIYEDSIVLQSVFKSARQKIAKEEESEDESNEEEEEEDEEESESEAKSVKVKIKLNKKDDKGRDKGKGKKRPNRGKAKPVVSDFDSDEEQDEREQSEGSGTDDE
- assay_remarks: ATPase catalytic activity assay (ADP-Glo), BRM
- condition_details: BRM ATPase: IC50 (uM), 30 nM BRM, 400 μM ATP
Here the recorded IC50 is given for each entry.

Examples with their reported IC50 follow.
molecule: C[C@@]1(C#N)COCc2ccc(C(=O)NCc3cc4cc(-c5cncc(N6CCC6)n5)ccc4cn3)cc21
IC50: < 0.1 µM

molecule: CCc1cc2c(-c3ccc4cnc(CNC(=O)c5ccc6c(c5)[C@](C)(C#N)COC6)cc4n3)cccc2n1C
IC50: < 0.1 µM

molecule: C[C@@]1(C#N)COCc2ccc(C(=O)NCc3cc4c(cn3)CCN(c3ccnc(C5CC5)n3)C4)cc21
IC50: 0.1 to 0.5 µM

molecule: C[C@@]1(C#N)COCc2ccc(C(=O)NCc3cc(C#Cc4ccccc4)c(F)cn3)cc21
IC50: 0.5 to 1 µM

molecule: Cn1cc(-c2ccc3cnc(CNC(=O)c4ccc5c(c4)[C@](C)(F)COC5)cc3n2)c(C#N)n1
IC50: 0.1 to 0.5 µM

molecule: C[C@@]1(F)COCc2ccc(C(=O)NCc3cc4nc(-c5ccnc(N6CC[C@@H]7COC[C@H]7C6)n5)ccc4cn3)cc21
IC50: < 0.1 µM

Here is another molecule to look at.
Task: Endpoint output: IC50 of COC(=O)c1cccc(/C=C/c2ccnc(CNC(=O)c3ccc4c(c3)[C@](C)(C#N)COC4)c2)c1 . Value?
Result: < 0.1 µM

====

- study_target: BRG-1 (Homo sapiens)
- assay_remarks: ATPase catalytic activity assay (ADP-Glo), BRG-1
Here the recorded IC50 is given for each entry.

molecule: CN1C(=O)Cc2cc(-c3ccc4cnc(CNC(=O)c5ccc6c(c5)[C@](C)(C#N)COC6)cc4n3)ccc21 [Compound 498]
observation_type: IC50
endpoint_result: 100 to 500 nM

Task: Endpoint output: IC50 of Cn1ncc2cc(-c3ccc4cnc(CNC(=O)c5ccc6c(c5)[C@](C)(C#N)COC6)cc4n3)ccc21 [Compound 105] . Value?
Result: 500 to 1000 nM

====

- study_target: BRG-1 (Homo sapiens)
- assay_remarks: ATPase catalytic activity assay (ADP-Glo), BRG-1
- condition_details: 1 h, read-out: BRG1 Max % Inhibition, ADP-Glo, 30 nM BRG-1, 400 μM ATP
observation_type: Emax (%)

Examples with their reported Emax follow.
smiles_string: O=C(NCc1cc2nc(-c3cncc(N4CCC4)n3)ccc2cn1)c1cc(F)c2c(c1)[C@@](F)(C(F)F)COC2
Emax (%): 89
--
smiles_string: C[C@@]1(C#N)COCc2ccc(C(=O)NCc3nccc(N4Cc5ccccc5C4)c3F)cc21
Emax (%): 91

1 = C[C@@]1(CO)COCc2ccc(C(=O)NCc3cc4nc(-c5ccccc5)ccc4cn3)cc21
2 = COC(=O)c1cccc(C#Cc2ccnc(CNC(=O)c3ccc4c(c3)[C@](C)(O)COC4)c2)c1
Task: Name the one with the greater Emax value, either 1 or 2 as given. Answer with the label corresponding to your selection.
Result: 2

====

Here the recorded IC50 is given for each entry.
- study_target: BRG-1 (Homo sapiens, UniProt P51532)
- Sequence (P51532 whole entry): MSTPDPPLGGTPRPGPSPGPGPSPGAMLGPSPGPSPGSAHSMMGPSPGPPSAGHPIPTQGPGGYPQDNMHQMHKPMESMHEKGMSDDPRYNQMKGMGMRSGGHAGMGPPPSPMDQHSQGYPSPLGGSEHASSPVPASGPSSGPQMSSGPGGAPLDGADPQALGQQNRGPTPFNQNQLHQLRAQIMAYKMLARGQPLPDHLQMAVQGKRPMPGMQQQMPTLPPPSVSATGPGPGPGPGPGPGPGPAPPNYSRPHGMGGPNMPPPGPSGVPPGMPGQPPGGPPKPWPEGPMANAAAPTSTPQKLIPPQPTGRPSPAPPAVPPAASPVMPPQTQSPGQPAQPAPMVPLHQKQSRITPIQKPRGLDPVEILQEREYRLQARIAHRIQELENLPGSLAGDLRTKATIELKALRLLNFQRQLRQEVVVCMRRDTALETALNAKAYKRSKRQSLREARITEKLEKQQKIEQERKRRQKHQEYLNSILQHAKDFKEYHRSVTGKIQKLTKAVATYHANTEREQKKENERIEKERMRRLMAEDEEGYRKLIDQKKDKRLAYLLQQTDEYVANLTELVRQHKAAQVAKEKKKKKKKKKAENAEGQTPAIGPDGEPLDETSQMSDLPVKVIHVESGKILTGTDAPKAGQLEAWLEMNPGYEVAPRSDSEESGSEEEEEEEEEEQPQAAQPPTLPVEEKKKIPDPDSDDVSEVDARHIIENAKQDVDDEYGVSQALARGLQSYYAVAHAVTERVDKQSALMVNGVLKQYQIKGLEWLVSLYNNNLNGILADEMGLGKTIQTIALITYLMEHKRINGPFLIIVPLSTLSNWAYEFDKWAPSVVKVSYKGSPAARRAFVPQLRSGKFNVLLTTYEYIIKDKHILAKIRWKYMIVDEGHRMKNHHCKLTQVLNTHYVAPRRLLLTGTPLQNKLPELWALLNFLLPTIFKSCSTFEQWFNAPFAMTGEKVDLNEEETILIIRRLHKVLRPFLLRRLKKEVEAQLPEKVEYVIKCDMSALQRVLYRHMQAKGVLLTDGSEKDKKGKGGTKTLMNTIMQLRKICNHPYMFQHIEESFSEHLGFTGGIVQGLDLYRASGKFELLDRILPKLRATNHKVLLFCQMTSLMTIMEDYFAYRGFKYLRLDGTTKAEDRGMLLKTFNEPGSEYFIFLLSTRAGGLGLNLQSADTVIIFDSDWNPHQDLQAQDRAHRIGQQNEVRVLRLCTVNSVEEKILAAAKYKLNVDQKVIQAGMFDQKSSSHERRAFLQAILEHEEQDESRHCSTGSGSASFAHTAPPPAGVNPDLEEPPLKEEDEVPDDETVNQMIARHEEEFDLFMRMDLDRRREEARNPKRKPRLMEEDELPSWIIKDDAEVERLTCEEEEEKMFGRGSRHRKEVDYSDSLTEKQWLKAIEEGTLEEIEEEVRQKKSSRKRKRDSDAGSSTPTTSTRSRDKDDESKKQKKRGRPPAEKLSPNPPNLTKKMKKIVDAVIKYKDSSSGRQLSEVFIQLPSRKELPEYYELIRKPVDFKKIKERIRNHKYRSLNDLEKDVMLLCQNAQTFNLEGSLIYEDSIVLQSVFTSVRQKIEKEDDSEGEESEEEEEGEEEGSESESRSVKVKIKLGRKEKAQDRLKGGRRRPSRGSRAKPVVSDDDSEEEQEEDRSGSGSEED
- assay_remarks: ATPase catalytic activity assay (ADP-Glo), BRG-1

Examples with their reported IC50 follow.
compound: Cc1c(-c2ccc3cnc(CNC(=O)c4ccc5c(c4)[C@](C)(C#N)COC5)cc3n2)cnn1C1COC1
IC50: > 1000 nM

compound: C[C@@]1(F)COCc2ncc(C(=O)NCc3cc4nc(-c5ccnc(N6CCC6)n5)cnc4cn3)cc21
IC50: 100 to 500 nM

Task: Endpoint output: IC50 of O=C(NCc1cc2nc(-c3cncc(C4CC4)n3)ccc2cn1)c1cnc2c(c1)[C@@](F)(C(F)F)COC2 . Value?
Result: 100 to 500 nM

Task: Endpoint output: IC50 of C[C@@]1(C#N)COCc2ccc(C(=O)NCc3cc(C4CN(c5ccccc5)C4)ccn3)cc21 . Value?
Result: > 1000 nM

Task: Endpoint output: IC50 of C[C@@]1(C#N)COCc2ccc(C(=O)NCc3cc4nc(N5CCN(C6CC6)C5=O)ccc4cn3)cc21 . Value?
Result: > 1000 nM

Task: Endpoint output: IC50 of C[C@@]1(C#N)COCc2ccc(C(=O)NCc3cc4nc(-n5cc(F)cn5)ccc4cn3)cc21 . Value?
Result: 500 to 1000 nM

Task: Endpoint output: IC50 of C[C@@]1(F)COCc2ccc(C(=O)NCc3cc4nc(-c5ccccc5)ccc4cn3)cc21 . Value?
Result: > 1000 nM

Task: Endpoint output: IC50 of COc1nn(C2CCOC2)cc1-c1ccc2cnc(CNC(=O)c3ccc4c(c3)[C@](C)(C#N)COC4)cc2n1 (stereo partly drawn) . Value?
Result: > 1000 nM

Task: Endpoint output: IC50 of C[C@@]1(C#N)COCc2ccc(C(=O)NCc3cc4nc(N5CCCCC5)ccc4cn3)cc21 . Value?
Result: > 1000 nM
